Each recorded value in this set is attributed to PubChem BioAssay AID1159580.

- assay_method_text: chemical genetic growth profiling, strain panel (AID 1159580);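 note: tested at 20 µM; growth read once vehicle control cultures reached saturation at 30 °C; 1 = growth at the plate median or of vehicle wells; lower values mean less growth of the strain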
- setup_conditions: S. cerevisiae deletion strains, growth OD, locus YBR231C, strain swc5, active compounds read low
Among all 5,500 compounds or so, about 2,000 (36%) were called active. About 18% were inconclusive and are not listed. Some of the results follow.

compound	normalized growth
Cc1cc(O)c(C=O)c2c1C(=O)Oc1c(COC(=O)/C=C/C(=O)O)c(O)c(C(=O)O)c(C)c1O2	0.885
CC(CCC(=O)O)[C@H]1CCC2C3C(C[C@H](O)[C@@]21C)[C@@]1(C)CC[C@@H](O)C[C@H]1C[C@H]3O (stereo not given in full)	1
NC(N)=O	1.03
CC(CCC(=O)O)[C@H]1CCC2C3C[C@H](O)[C@@H]4C[C@H](O)CC[C@]4(C)C3CC[C@@]21C (stereo not given in full)	1.01
Cc1cc(C)cc(OCC2CNC(=O)O2)c1 (stereo not given)	0.992

###

- assay_method_text: chemical genetic growth profiling, strain panel (AID 1159580);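 note: tested at 20 µM; growth read once vehicle control cultures reached saturation at 30 °C; 1 = growth at the plate median or of vehicle wells; lower values mean less growth of the strain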
- setup_conditions: S. cerevisiae deletion strains, growth OD, locus YOR184W, strain ser1
Hit rate of the full screen: of about 5,500 compounds, about 2,000 (36%) were called active. Not shown: some 18% with an inconclusive outcome. Rule as the data show it: active = normalized growth mostly below about 0.91 (no sharp cut-off); inconclusive = no clear call, values can overlap the other calls; inactive = mostly above about 0.92. The list shows a part of the results.
Labels: active, inactive

compound	assigned_label
O=c1cc(-c2ccccc2)oc2cc(O)c(O)c(O)c12	active
N[C@@H]1[C@@H](O)[C@H](O)[C@@H](CO)O[C@H]1O	inactive
Cc1cc(O)c(C=O)c2c1C(=O)Oc1c(C)c(O)c3c(c1O2)C(O)OC3=O (stereo not drawn)	inactive
COc1cc2c(cc1-c1cc3cc4ccoc4cc3oc1=O)OCO2	inactive
COc1c(Cl)ccc(Cl)c1C(=O)O	inactive
NC(Cc1ccc(F)cc1)C(=O)O (stereo not drawn)	inactive
C[C@@H](N)[C@@H](O)c1ccccc1	inactive
N[C@@H](Cc1cc(I)c(Oc2cc(I)c(O)c(I)c2)c(I)c1)C(=O)O	inactive
O=c1cc(-c2ccccc2)oc2c(O)c(O)ccc12	inactive
CCCCC[C@H](CC(=O)NO)C(=O)N[C@H](C(=O)N1CCC[C@H]1CO)C(C)C	inactive
CC(=O)Nc1ccccc1	inactive
NCC(CC(=O)O)c1ccc(Cl)cc1 (stereo not drawn)	inactive
CC(=O)O[C@H]1CC[C@]2(C)C3=CC(=O)[C@@]4(C)C(C[C@@H]5OC6(OCC(C)CC6Br)[C@@H](C)[C@@H]54)C3CC[C@H]2C1 (stereo partly drawn)	inactive
COc1ccc(C(=O)CC(=O)c2ccc(C(C)(C)C)cc2)cc1	inactive
COc1cc(OC)c2c3c1C(=O)c1c(OC)cc(C)c4c(OC)cc(c-3c14)C(C)(C)C2=O	inactive
CC(CCC(=O)O)[C@H]1CCC2C3C(C[C@H](O)[C@@]21C)[C@@]1(C)CC[C@@H](O)C[C@H]1C[C@H]3O (stereo partly drawn)	inactive
Cc1cc(O)c(C)c2c1C(=O)Oc1c(C)c(O)c(C(=O)O)c(C)c1O2	inactive
Cc1cc(=O)oc2c(O)c(O)ccc12	inactive
Cc1nc2ccccn2c(=O)c1CCN1CCC(C(=O)c2ccc(F)cc2)CC1	inactive
COc1cc([C@H]2Oc3cc([C@H]4Oc5cc(O)cc(O)c5C(=O)[C@@H]4O)ccc3O[C@@H]2CO)ccc1O	inactive
CCCCCC1C(=O)CCC1CC(=O)O (stereo not drawn)	inactive
N[C@H](Cc1cc(I)c(Oc2ccc(O)c(I)c2)c(I)c1)C(=O)O	inactive
CN(C)CCC(c1ccc(Br)cc1)c1ccccn1 (stereo not drawn)	inactive
COC(=O)CCC(C)[C@H]1CCC2C3C(C[C@H](O)[C@@]21C)[C@@]1(C)CC[C@@H](O)C[C@H]1C[C@H]3O (stereo partly drawn)	inactive
O=c1cc(-c2ccccc2)oc2cc(O)cc(O)c12	active
C[C@H](N)[C@H](O)c1cccc(O)c1	inactive
COc1cc(C(=O)O)c2c(c1C)OC(=O)c1c(C)cc(O)c(C=O)c1O2	inactive
CN(C)C(=O)Nc1ccc(Cl)c(Cl)c1	inactive
NNCCc1ccccc1	inactive
COC(=O)CCC(C)C1CCC2C3CC[C@@H]4C[C@H](O)CC[C@]4(C)C3C[C@H](O)[C@]12C (stereo partly drawn)	active
CC(=O)Nc1nnc(S(N)(=O)=O)s1	inactive
CC(CCC(=O)O)[C@H]1CCC2C3CC[C@@H]4C[C@H](O)CC[C@]4(C)C3CC[C@@]21C (stereo partly drawn)	active
Cc1cc(O)c(C=O)c2c1C(=O)Oc1c(COC(=O)/C=C/C(=O)O)c(O)c(C(=O)O)c(C)c1O2	inactive
CN(C)CCOC(=O)COc1ccc(Cl)cc1	active
COc1cc2c(cc1/C=C/C(=O)c1cc(OC)c(OC)cc1OC)OCO2	inactive
CC(=O)O[C@H]1CC[C@]2(C)C3C(=O)[C@@H](OC(C)=O)[C@@]4(C)C(C[C@@H]5O[C@]6(CCC(C)CO6)[C@@H](C)[C@@H]54)C3CC[C@H]2C1 (stereo partly drawn)	inactive
CC1(C)C(=O)C=C[C@@]2(C)C1CC(=O)[C@@]1(C)C3=CC(=O)O[C@@H](c4ccoc4)[C@]3(C)CCC12 (stereo partly drawn)	inactive
CSc1ccc2c(c1)N(CCC1CCCCN1C)c1ccccc1S2 (stereo not drawn)	active
O=c1cc(-c2cc(O)c(O)c(O)c2)oc2cc(O)cc(O)c12	inactive
COC(=O)CCCOc1ccc(Cl)cc1Cl	inactive
C[C@H](CCC(=O)O)[C@H]1CCC2C3C(CC[C@@]21C)[C@@]1(C)CC[C@@H](O)C[C@H]1C[C@H]3O (stereo partly drawn)	inactive
Cc1cccc(Nc2ccncc2S(=O)(=O)NC(=O)NC(C)C)c1	inactive
O=C(O)Cc1cc(I)c(Oc2cc(I)c(O)c(I)c2)c(I)c1	inactive
